System: biotinyl-Trp-oxazolone
Test: self-aminoacylation, catalytic enhancement (BWO) (fold over background); higher = more active; k-Seq, kA / k0A0; sequences stand for … in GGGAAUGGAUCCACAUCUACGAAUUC…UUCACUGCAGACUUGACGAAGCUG
Fewer inactive variants are shown than the library holds.
Assign class by self-aminoacylation: not lower than 2 means T; lower than 2 means F.

>  <sequence>
AUUACCCUGGUCAACGAGAGA [Fam2.1 aminoacylation ribozyme variant]

>  <assay.system>
biotinyl-Trp-oxazolone

>  <assigned.class>
F

$$$$
>  <sequence>
AUUCACCUGCGUCAUCGGGUG [Fam2.2 aminoacylation ribozyme variant]

>  <assay.system>
biotinyl-Trp-oxazolone

>  <assigned.class>
T

$$$$
>  <sequence>
CUUACGCUGGUCAUCGAGUGA [Fam2.1 aminoacylation ribozyme variant]

>  <assay.system>
biotinyl-Trp-oxazolone

>  <assigned.class>
T

$$$$
>  <sequence>
CAGUUUGCUAAUAGGCGCAAG [Fam3.1 aminoacylation ribozyme variant]

>  <assay.system>
biotinyl-Trp-oxazolone

>  <assigned.class>
F

$$$$
>  <sequence>
CUUACCCGGGUCAUCGAGUGA [Fam2.1 aminoacylation ribozyme variant]

>  <assay.system>
biotinyl-Trp-oxazolone

>  <assigned.class>
T

$$$$

# input Does AUUCACCUAGGUCAUCAGCUG [Fam2.2 aminoacylation ribozyme variant] have a reported self-aminoacylation of at least 2?
# output F

* * *

Test system: biotinyl-Val-oxazolone
Assay: self-aminoacylation, catalytic enhancement (BVO) (fold over background); higher = more active; k-Seq, kA / k0A0; sequences stand for … in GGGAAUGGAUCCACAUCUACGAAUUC…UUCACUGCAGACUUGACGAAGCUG
Fewer inactive variants are shown than the library holds.
endpoint: self-aminoacylation
Enter a number only.

>  <sequence>
AUAACCAUGGUCAUCGAGUGA [Fam2.1 aminoacylation ribozyme variant]

>  <result>
3.7

$$$$
>  <sequence>
AUUCACCUAGGUCGUCCGGUG [Fam2.2 aminoacylation ribozyme variant]

>  <result>
2.35

$$$$
>  <sequence>
UCUACCCUGGUCAUCGAGUGA [Fam2.1 aminoacylation ribozyme variant]

>  <result>
5.79

$$$$
>  <sequence>
CUACUGCAAACAAUCGGGCUG [Fam1A.1 aminoacylation ribozyme variant]

>  <result>
1.98

$$$$

Kindly review the next sequence as well.
Briefly, self-aminoacylation measured for AUUACCCUGUGCAUCGAGUGA [Fam2.1 aminoacylation ribozyme variant] : 3.05

* * *

System: biotinyl-Met-oxazolone
Experiment: self-aminoacylation, catalytic enhancement (BMO) (fold over background); higher = more active; k-Seq, kA / k0A0; sequences stand for … in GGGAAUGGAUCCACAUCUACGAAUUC…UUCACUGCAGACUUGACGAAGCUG
Variants at the floor of the assay were thinned out.
Think of 3 as a floor: if self-aminoacylation stands on it or above, it is T; beneath it, F.

>  <sequence>
CUUCUCCUAGGUCAUCGGGUG [Fam2.2 aminoacylation ribozyme variant]

>  <assigned.class>
T

$$$$

# input Textbook exercise: given the entry AUUCACCUAGGUCCUGGGGUG [Fam2.2 aminoacylation ribozyme variant] , state whether its self-aminoacylation is greater than or equal to 3.
# output T

# input Has AUUCACCUUUGUCAUCGGGUG [Fam2.2 aminoacylation ribozyme variant] a recorded self-aminoacylation greater than or equal to 3?
# output T
